tested on: U2OS; experiment: Multiplex assay against U2OS; format: toxicity, cell-based; conditions: human, 12 h, 10 µM, compound concentration 10 uM, replicate 2
Here, each record is paired with measured Population Healthy Nuclei (%) data.
quantity-name: Population Healthy Nuclei (%)

structure_smiles_string=COc1cc2c(Nc3ccc(NC(=O)c4ccccc4)cc3)ncnc2cc1OCCCN1CCOCC1 quantity_name="Population Healthy Nuclei (%)" readout_number=87
structure_smiles_string=Nc1nc2c(c(N3CCNCC3)n1)CCC1=C2[C@@H]2CCCC[C@@H]2O1 quantity_name="Population Healthy Nuclei (%)" readout_number=68
structure_smiles_string=CNC(=O)c1cc(Oc2ccc(NC(=O)Nc3cc(C(C)(C)C)nn3-c3ccc4ncccc4c3)c(F)c2)ccn1 quantity_name="Population Healthy Nuclei (%)" readout_number=72
structure_smiles_string=COc1cc2c(NC3CCN(C(C)C)CC3)nc(N3CCC(F)(F)CC3)nc2cc1OCCCN1CCCC1 quantity_name="Population Healthy Nuclei (%)" readout_number=76

----------
Here, each record is paired with measured Population Hoechst High Intensity Objects (%) data.
test system: U2OS; assay: Multiplex assay against U2OS; format: toxicity, cell-based; conditions: human, 24 h, 10 µM, compound concentration 10 uM, replicate 2
quantity-name: Population Hoechst High Intensity Objects (%)

structure_smiles_string=CNc1oc(-c2cccc3ccccc23)nc1C#N readout_number=44
structure_smiles_string=Cc1cc2c(cc1N1C(=O)c3cccc4c(CCCO)ccc(c34)C1=O)n(C)c(=O)n2C readout_number=11
structure_smiles_string=CCOc1cc2ncc(C#N)c(Nc3ccc(OCc4cccc(F)c4)c(Cl)c3)c2cc1NC(=O)/C=C/CN(C)C readout_number=12
structure_smiles_string=CCc1cc2c(cc1CC)CC(NC[C@H](O)c1ccc(O)c3[nH]c(=O)ccc13)C2 readout_number=6
structure_smiles_string=N#Cc1cnc(Nc2cc(NC[C@H]3CNCCO3)c(C(F)(F)F)cn2)cn1 readout_number=8

----------
system: Fibroblast; assay: Incucyte cell viability with human fibroblast; assay type: toxicity, cell-based; details: 18 h, 10 µM, compound concentration 10 uM, replicate number 1, timepoint 18 hours; also: filed as whole numbers so only -1 and 0 and 1 occur
quantity-name: Growth Rate

molecule="CC1(C)CNc2cc(NC(=O)c3cccnc3NCc3ccncc3)ccc21.O=P(O)(O)O.O=P(O)(O)O [MOTESANIB DIPHOSPHATE]" readout_number=1
molecule=CNc1nc(-c2ccc3c(N)n[nH]c3c2)cc(N2C[C@@H](C(=O)NC3CCCCC3)CC[C@H]2C)n1 readout_number=0
molecule=O=C(Nc1cccc2c(=O)cc(-c3nnn[nH]3)oc12)c1ccc(OCCCCc2ccccc2)cc1 readout_number=0
molecule=Cl.Cl.Nc1ncnc2c1c(-c1cccc(OCc3ccccc3)c1)cn2[C@H]1C[C@@H](CN2CCC2)C1 readout_number=0
molecule="COc1cccc(OC)c1-c1cc(C(=O)NC2(C(=O)O)C3CC4CC(C3)CC2C4)nn1-c1ccnc2cc(Cl)ccc12 (stereo unspecified)" readout_number=1
molecule=Nc1nc(NCc2ccccc2)nc(-c2cccc(CO)c2)n1 readout_number=0
molecule=CC(C)(C)c1cnc(CSc2cnc(NC(=O)C3CCNCC3)s2)o1 readout_number=0
molecule=CCC(=O)N1CC[C@H](Nc2ncnc3c2CN(c2cnc(OC)c(C(F)(F)F)c2)CC3)C1 readout_number=0
molecule=N#CC1(c2ccccn2)CCN(Cc2cc(C(=O)N3CCCC3)c(=O)n3ccccc23)CC1 readout_number=1
molecule=Oc1ccc(-c2nc3cc(O)cc(Br)c3o2)cc1 readout_number=1
molecule=COc1ccc(/C=C/CCCCOc2ccc(C(=O)c3cccc(C(=O)O)c3)cc2CCC(=O)O)cc1 readout_number=0
molecule=Cc1cc(SCc2sc(-c3ccc(C(F)(F)F)c(F)c3)nc2C)ccc1OCC(=O)O readout_number=1
molecule=Cc1cnc(-c2cc(Cl)ccc2F)cc1-n1c(=O)n(CC(N)=O)c2cnccc21 readout_number=0
molecule=C[C@H](CO)Nc1nc(SCc2cccc(Cl)c2F)nc2[nH]c(=O)sc12 readout_number=1
molecule=CNc1cc2[nH]c(=O)n(-c3ccc(NC(=O)NS(=O)(=O)c4ccc(Cl)s4)cc3)c(=O)c2cc1F readout_number=1
molecule=Clc1cc2c(NC3CCCC3)nnc(-c3ccncc3)c2cc1Cl readout_number=1

----------
tested on: U2OS; experiment: Multiplex assay against U2OS; assay type: toxicity, cell-based; settings: human, 48 h, 10 µM, compound concentration 10 uM, replicate 1
quantity-name: Population Normal (%)

molecule=Nc1ccc(C(=O)Nc2cccc(-c3nc(N4CCOCC4)c4oc5ncccc5c4n3)c2)cn1 quantity_name="Population Normal (%)" readout_number=76
molecule=CNc1oc(-c2cccc3ccccc23)nc1C#N quantity_name="Population Normal (%)" readout_number=56
molecule="Cc1nc(Cc2cccc(C(F)(F)F)c2)sc1-c1ccc(C(N)=O)nc1 [TP-024n]" quantity_name="Population Normal (%)" readout_number=94
molecule=CCc1cc2c(cc1CC)CC(NC[C@H](O)c1ccc(O)c3[nH]c(=O)ccc13)C2 quantity_name="Population Normal (%)" readout_number=90
molecule=Cl.Cl.Nc1ncnc2c1c(-c1cccc(OCc3ccccc3)c1)cn2[C@H]1C[C@@H](CN2CCC2)C1 quantity_name="Population Normal (%)" readout_number=87
molecule=COc1cc2c(NC3CCN(C(C)C)CC3)nc(N3CCC(F)(F)CC3)nc2cc1OCCCN1CCCC1 quantity_name="Population Normal (%)" readout_number=88
molecule=O=C(O)c1ccc2cc(-c3ccc(O)c(C45CC6CC(CC(C6)C4)C5)c3)ccc2c1 quantity_name="Population Normal (%)" readout_number=90
molecule=Cc1cc2c(cc1N1C(=O)c3cccc4c(CCCO)ccc(c34)C1=O)n(C)c(=O)n2C quantity_name="Population Normal (%)" readout_number=98
molecule=CC(C)N1CCC(C)(C)c2cc(C#Cc3ccc(C(=O)O)cc3)ccc21 quantity_name="Population Normal (%)" readout_number=61
molecule=COc1ccc(NS(=O)(=O)c2sc3ccc(Cl)cc3c2C)cc1N1CCNCC1.Cl quantity_name="Population Normal (%)" readout_number=87
molecule=Nc1nc2c(c(N3CCNCC3)n1)CCC1=C2[C@@H]2CCCC[C@@H]2O1 quantity_name="Population Normal (%)" readout_number=81
molecule="CCn1c(-c2nonc2N)nc2cnc(Oc3cccc(NC(=O)c4ccc(OCCN5CCOCC5)cc4)c3)cc21 [GSK-269962A]" quantity_name="Population Normal (%)" readout_number=93
molecule="CC(C)Oc1ccc(C(=O)N[C@H](CNC(=O)CN(C)C)Cc2ccc(-c3cn4cccc([C@H](C)O)c4n3)cc2)cc1Cl [GSK-923295A]" quantity_name="Population Normal (%)" readout_number=89

----------
Here, each record is paired with measured Population Apoptotic (%) data.
tested on: Fibroblast; experiment: Multiplex assay against human fibroblast; assay type: toxicity, cell-based; conditions: 24 h, 10 µM, compound concentration 10 uM, replicate 2
quantity-name: Population Apoptotic (%)

compound=COc1cc2c(NC3CCN(C(C)C)CC3)nc(N3CCC(F)(F)CC3)nc2cc1OCCCN1CCCC1 quantity_name="Population Apoptotic (%)" readout_number=90
compound=Cl.Cl.Nc1ncnc2c1c(-c1cccc(OCc3ccccc3)c1)cn2[C@H]1C[C@@H](CN2CCC2)C1 quantity_name="Population Apoptotic (%)" readout_number=92
compound="CCn1c(-c2nonc2N)nc2cnc(Oc3cccc(NC(=O)c4ccc(OCCN5CCOCC5)cc4)c3)cc21 [GSK-269962A]" quantity_name="Population Apoptotic (%)" readout_number=53
compound="CCC(=O)O[C@]1(C(=O)SCF)[C@H](C)C[C@H]2[C@@H]3C[C@H](F)C4=CC(=O)C=C[C@]4(C)[C@@]3(F)[C@@H](O)C[C@@]21C [FLUTICASONE PROPIONATE]" quantity_name="Population Apoptotic (%)" readout_number=58
compound=CNC(=O)c1cc(Oc2ccc(NC(=O)Nc3cc(C(C)(C)C)nn3-c3ccc4ncccc4c3)c(F)c2)ccn1 quantity_name="Population Apoptotic (%)" readout_number=70
compound=COc1ccc(NS(=O)(=O)c2sc3ccc(Cl)cc3c2C)cc1N1CCNCC1.Cl quantity_name="Population Apoptotic (%)" readout_number=68
compound=CCOc1cc2ncc(C#N)c(Nc3ccc(OCc4cccc(F)c4)c(Cl)c3)c2cc1NC(=O)/C=C/CN(C)C quantity_name="Population Apoptotic (%)" readout_number=63
compound=Nc1nc2c(c(N3CCNCC3)n1)CCC1=C2[C@@H]2CCCC[C@@H]2O1 quantity_name="Population Apoptotic (%)" readout_number=33
compound=CNc1oc(-c2cccc3ccccc23)nc1C#N quantity_name="Population Apoptotic (%)" readout_number=81
compound=COc1cc2c(Nc3ccc(NC(=O)c4ccccc4)cc3)ncnc2cc1OCCCN1CCOCC1 quantity_name="Population Apoptotic (%)" readout_number=66
compound=CC(=O)c1cc(-c2cc(C(=O)NC3CC3)ccc2C)c2ncccn12 quantity_name="Population Apoptotic (%)" readout_number=48
compound=CC(C)(C)c1cnc(CSc2cnc(NC(=O)C3CCNCC3)s2)o1 quantity_name="Population Apoptotic (%)" readout_number=62
